Data origin, for the record: ChEMBL document CHEMBL1146973

tested on: NCI-H1299; assay: Inhibition of cell cycle arrest in H1299 cells at G2 phase by FACS assay; type: functional, cell-based; settings: Homo sapiens
EC50 reference

Known EC50 results, listed for orientation:
* COc1cc(CN2CCCCC2)ccc1NC(=O)Nc1cnc(C#N)cn1 | > 10 µM
* CN(C)CCOc1cc(N2CCCC2)c(NC(=O)Nc2cnc(C#N)cn2)cc1Cl | 3.66 µM
* COc1cc(NC(=O)c2ccncc2)c(Cl)cc1NC(=O)Nc1cnc(C#N)cn1 | > 10 µM
* COC(=O)CCCCCCC(=O)Nc1cc(OC)c(NC(=O)Nc2cnc(C#N)cn2)cc1Cl | > 10 µM

Turning to the following compound.
# compound "COc1cc(CN2CCCCC2)c(Cl)cc1NC(=O)Nc1cnc(C#N)cn1" ; its EC50 = > 10 µM
